Below, each of the binders is paired with its reported Kd value.
TARGET_OR_TEST_SYSTEM: T1, human PSMA expressed with an N-terminal hexahistidine tag (6h.hPSMA, R&D) (human, UniProt Q04609 44-750)
T1 construct: Bought soluble protein; also called soluble human PSMA; human PSMA protein
T1 sequence (Q04609 other isoform, or with tags, fused parts or gaps limits assumed): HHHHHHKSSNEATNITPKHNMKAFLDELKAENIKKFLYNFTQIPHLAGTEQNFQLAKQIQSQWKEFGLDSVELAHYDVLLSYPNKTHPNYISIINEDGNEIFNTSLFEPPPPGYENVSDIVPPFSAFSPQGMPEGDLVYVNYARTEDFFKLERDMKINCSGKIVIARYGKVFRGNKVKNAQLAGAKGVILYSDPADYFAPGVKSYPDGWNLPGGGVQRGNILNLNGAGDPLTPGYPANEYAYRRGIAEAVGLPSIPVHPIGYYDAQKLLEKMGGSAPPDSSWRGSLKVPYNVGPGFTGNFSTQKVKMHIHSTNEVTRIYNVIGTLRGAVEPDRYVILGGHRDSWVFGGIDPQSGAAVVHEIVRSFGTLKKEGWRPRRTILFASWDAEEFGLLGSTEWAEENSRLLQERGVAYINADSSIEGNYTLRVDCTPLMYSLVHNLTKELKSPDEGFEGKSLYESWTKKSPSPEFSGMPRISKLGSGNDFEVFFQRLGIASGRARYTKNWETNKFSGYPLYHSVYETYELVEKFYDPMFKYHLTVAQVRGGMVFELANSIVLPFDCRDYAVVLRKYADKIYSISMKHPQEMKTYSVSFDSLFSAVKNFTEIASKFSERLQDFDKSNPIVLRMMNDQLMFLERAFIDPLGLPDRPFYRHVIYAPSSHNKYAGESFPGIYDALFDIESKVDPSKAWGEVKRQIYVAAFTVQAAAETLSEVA
PROTOCOL_NOTES: SPR Biacore T-200, 37 C, antibody-capture (anti-human Fc), 6h.hPSMA as analyte
The response must be a number in nM with no trailing unit.

H1H11804P2 (antibody, human IgG1, V domains shown, human IgG1) VH: QVQLVESGGGVVQPGRSLRLSCAASGFTFISYGMHWVRQAPGKGLEWVAVISYDGSNKYYADSVKGRFTISRDNSKNTLFLQMNSLRAEDTAVYYCAKNYDFWNGYVGYYGMDVWGQGTTVTVSS VL: DIQMTQSPSSLSASVGDSVTITCRASQSINNYLNWYQQKPGKAPKLLIYTASSLLSGVPSRFSGSGSGTDFTLTISGLHPEDFATYFCQQSFSTPPITFGQGTRLDIK; 39.4

Please indicate Kd recorded for H1H11838P2 (antibody, human IgG1, V domains shown, human IgG1) VH: QVQLVESGGGVVQPGRSLRLSCAASGFTFSSYGMHWVRQAPGKGLEWVAFMSYDGSNKFYSDSVKGRFTISRDNSRKMLFLQMNNLRAEDTAVYYCARDQYYDFLTDHGVFDYWGQGTLVTVSS VL: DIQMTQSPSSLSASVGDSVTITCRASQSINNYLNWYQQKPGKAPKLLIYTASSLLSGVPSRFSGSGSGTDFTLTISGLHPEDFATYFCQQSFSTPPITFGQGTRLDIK
1.99
